Target: furin, P09958;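 also: purified furin at 1:10 enzyme:substrate in 50 mM HEPES pH 7.5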
Sequence (P09958 whole entry): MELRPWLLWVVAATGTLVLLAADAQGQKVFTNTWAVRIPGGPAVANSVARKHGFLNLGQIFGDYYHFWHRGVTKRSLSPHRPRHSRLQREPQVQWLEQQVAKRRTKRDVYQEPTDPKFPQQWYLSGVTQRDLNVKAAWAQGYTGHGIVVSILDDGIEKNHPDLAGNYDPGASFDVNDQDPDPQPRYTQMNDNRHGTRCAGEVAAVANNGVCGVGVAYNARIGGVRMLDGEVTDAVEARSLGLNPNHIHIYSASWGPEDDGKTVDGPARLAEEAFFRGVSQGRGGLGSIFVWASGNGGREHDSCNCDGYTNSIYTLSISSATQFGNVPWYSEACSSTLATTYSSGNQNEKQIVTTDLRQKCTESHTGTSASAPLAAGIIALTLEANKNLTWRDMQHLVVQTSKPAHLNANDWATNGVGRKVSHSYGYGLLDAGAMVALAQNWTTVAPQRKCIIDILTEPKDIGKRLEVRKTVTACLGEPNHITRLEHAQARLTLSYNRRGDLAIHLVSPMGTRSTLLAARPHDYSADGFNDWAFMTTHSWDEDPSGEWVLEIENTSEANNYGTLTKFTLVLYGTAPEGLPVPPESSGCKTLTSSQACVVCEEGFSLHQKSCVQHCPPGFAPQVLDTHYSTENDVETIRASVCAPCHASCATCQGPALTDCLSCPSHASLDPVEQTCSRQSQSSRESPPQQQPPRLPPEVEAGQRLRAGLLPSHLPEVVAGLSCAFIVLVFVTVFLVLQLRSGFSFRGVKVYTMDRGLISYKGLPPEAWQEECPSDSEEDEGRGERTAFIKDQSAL
Test: furin cleavage Z-score vs untreated control; higher = more cleavage, active = 3.5 or more, inactive = 1 or less, 8 variable residues between constant flanks
Settings: 15 min
The other results are listed elsewhere or left out. The hit rate among all sequences tested is not known here.
observable: furin cleavage Z-score

                  sequencetext             result
0  CAYRRRPPRSAGNASASA [FS-111]               1.04
1   CATIKRLKRSAGNASASA [FS-97]      11.4 (active)
2  CAKLEVVTSTAGNASASA [HC2274]   0.175 (inactive)
3  CAKHMWNFISAGNASASA [HC1042]  -0.376 (inactive)

Return reported furin cleavage Z-score; argument: CAGVLAALAAAGNASASA [HC993]
0.568 (inactive)

Return reported furin cleavage Z-score; argument: CAVVLVGLMAAGNASASA [HC571]
0.0646 (inactive)

Return reported furin cleavage Z-score; argument: CAELPCHRPSAGNASASA [HC2325]
-0.4 (inactive)

Return reported furin cleavage Z-score; argument: CASTFCSAHLAGNASASA [HC2507]
-0.376 (inactive)

Return reported furin cleavage Z-score; argument: CAFPMRSKKIAGNASASA [FS-771]
0.142 (inactive)

Return reported furin cleavage Z-score; argument: CARKRAQKRSAGNASASA [FS-1064]
9.12 (active)

Return reported furin cleavage Z-score; argument: CAFLADGGCSAGNASASA [HC810]
-0.994 (inactive)

Return reported furin cleavage Z-score; argument: CALRAWRHRAAGNASASA [HC1619]
0.378 (inactive)

Return reported furin cleavage Z-score; argument: CADELRGKRSAGNASASA [FS-754]
0.269 (inactive)

Return reported furin cleavage Z-score; argument: CALKPRPKRSAGNASASA [FS-609]
12.3 (active)

Return reported furin cleavage Z-score; argument: CATIKRSVISAGNASASA [FS-2853]
0.855 (inactive)

Return reported furin cleavage Z-score; argument: CADDERSKRIAGNASASA [FS-221]
0.273 (inactive)

Return reported furin cleavage Z-score; argument: CASTPCSAHKAGNASASA [HC2574]
0.189 (inactive)

Return reported furin cleavage Z-score; argument: CALKRRGKRSAGNASASA [FS-350]
12.5 (active)

Return reported furin cleavage Z-score; argument: CAHHHRHRRAAGNASASA [FS-1006]
6.62 (active)

Return reported furin cleavage Z-score; argument: CARYQRRSRSAGNASASA [FS-1655]
7.54 (active)

Return reported furin cleavage Z-score; argument: CAHHHRHHRAAGNASASA [FS-1336]
2.68

Return reported furin cleavage Z-score; argument: CASHHRHRRGAGNASASA [FS-1410]
10.8 (active)

Return reported furin cleavage Z-score; argument: CAEVPTSTWVAGNASASA [HC2199]
-2.59 (inactive)

Return reported furin cleavage Z-score; argument: CASSECTTPCAGNASASA [HC1143]
1.52

Return reported furin cleavage Z-score; argument: CAYRLWHYPCAGNASASA [HC467]
0.568 (inactive)

Return reported furin cleavage Z-score; argument: CAYSSMPPLEAGNASASA [HC1353]
1.62
